test: Intrinsic clearance in human liver microsomes; assay type: ADME; details: read-out: CLH
observed.property: microsomal CLint (µL/min/mg)
Hi! Could you send only the number? It should be in µL/min/mg, unit omitted.

// known answers, use as guide
{"entry.smiles": "Fc1cnccc1[C@H](Nc1nnc(-c2c[nH]c3ncccc23)o1)C1CC1", "result.number": 27}
{"entry.smiles": "Fc1cc2cc(-c3nnc(NCc4ccccc4)o3)ccc2cn1", "result.number": 49}
{"entry.smiles": "CC[C@@H](Nc1nnc(-c2c[nH]c3ncccc23)o1)c1ccccc1", "result.number": 70}

Next:
// sample Fc1ccccc1CNc1nnc(-c2c[nH]c3ncccc23)o1 , its microsomal CLint was 32
